# assay-target: 5-hydroxytryptamine receptor 1E (Homo sapiens) (UniProt P28566)
# Sequence (P28566 whole entry, looked up): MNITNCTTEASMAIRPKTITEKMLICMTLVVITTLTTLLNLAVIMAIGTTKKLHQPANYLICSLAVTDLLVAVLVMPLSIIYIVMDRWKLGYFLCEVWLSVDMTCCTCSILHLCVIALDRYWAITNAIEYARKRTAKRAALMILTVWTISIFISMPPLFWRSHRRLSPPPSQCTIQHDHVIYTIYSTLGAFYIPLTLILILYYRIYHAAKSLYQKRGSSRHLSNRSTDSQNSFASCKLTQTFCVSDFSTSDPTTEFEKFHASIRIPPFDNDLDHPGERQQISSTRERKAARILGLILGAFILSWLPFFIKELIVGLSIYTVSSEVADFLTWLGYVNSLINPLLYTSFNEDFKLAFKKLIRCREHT
# procedure-summary: 5-HT1E receptor agonist potency, dose response, cell-based (AID 726)
# condition-description: CHO 5-HT1E/Ga15 NFAT-bla, FRET reporter
Active and inactive are the calls of the source.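 How the source made its calls: active means EC50 at or below 10 µM, fitted or read by hand from inhibition at single concentrations; inactive means EC50 above 10 µM.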
Answer with one of the outcomes given here: 1 (active), 0 (inactive)

Assay result, entry `NCCc1c[nH]c2ccc(F)cc12` — outcome?
1

For `Cc1cc(C(C)(C)C)cc(C)c1CC1=NCCN1` , what call appears in the results of this test?
1

Which outcome was entered for the compound Cc1noc(C)c1COc1ccc(C(=O)OC(C)C(=O)Nc2ccc(N3CCOCC3)cc2)cc1 (stereo not drawn) in this test?
0

Kindly provide the recorded test outcome for the following compound: `c1ccc(N2CCN(Cc3cn4cccnc4n3)CC2)cc1`
1

# lookup: test call for `CCN1CC=C(c2c[nH]c3ccccc23)CC1`
1

Origin of the recorded values: PubChem BioAssay AID726
